# Assayed system: T1, MBP-RAMP2 ECD [L106R]-(GS)5-CLR ECD-H6 fusion protein (human, UniProt O60895 43-143; Q16602 29-144)
# T1 chain: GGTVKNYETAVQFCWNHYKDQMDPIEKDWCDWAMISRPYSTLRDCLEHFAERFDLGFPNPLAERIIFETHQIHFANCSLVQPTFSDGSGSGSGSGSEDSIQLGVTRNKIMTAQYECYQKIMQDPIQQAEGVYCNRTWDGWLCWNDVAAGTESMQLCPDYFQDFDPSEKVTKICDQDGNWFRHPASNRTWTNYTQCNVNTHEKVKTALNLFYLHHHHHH
# Assay comment: FP competition, FITC-AM W/W probe, RAMP2-CLR ECD
Where no end group is shown, it is not given here.
Readout: pKI

| Binder | Readout | Recorded value |
| --- | --- | --- |
| FVPTDVGPWSY-NH2 [CGRP(27-37)NH2 [N31D, S34P, K35W, A36S, F37Y]] | pKI | 6.49 |
| DKDNVAPRWLISPWGF-NH2 [AM(37-52)NH2 [S45W, K46L, Q50W, Y52F]] | pKI | 5.39 |
| DKFNVAPRSLISPWGF-NH2 [AM(37-52)NH2 [D39F, K46L, Q50W, Y52F]] | pKI | 4.55 |
| DKDNVAPRTLISPWGY-NH2 [AM(37-52)NH2[S45T, K46L, Q50W]] | pKI | 5.8 |
| DKDNVAPRSKISPQGY-NH2 (also called WT (AM(37-52)NH2 scaffold)) [AM(37-52)NH2] | pKI | 4.69 |
| DKDNVAPRSLISPWGF-NH2 [AM(37-52)NH2 [K46L, Q50W, Y52F]] | pKI | 4.05 |
| DKDNVAPRWLIGPWGF-NH2 [AM(37-52)NH2 [S45W, K46L, S48G, Q50W, Y52F]] | pKI | 5.9 |
| DKDNVAPRWMISPWGF-NH2 [AM(37-52)NH2 [S45W, K46M, Q50W, Y52F]] | pKI | 5.11 |
| FVPTDTGPWGY-NH2 [CGRP(27-37)NH2 [N31D, V32T, S34P, K35W, A36G, F37Y]] | pKI | 4.84 |
| DKDNVAPRSKISPWGY-NH2 [AM(37-52)NH2 [Q50W]] | pKI | 6.5 |
| FVPTDTGPWSF-NH2 [CGRP(27-37)NH2 [N31D, V32T, S34P, K35W, A36S]] | pKI | 5.56 |
| DKDNVAPRWKISPWGY-NH2 (also called S45W/Q50W double mutant) [AM(37-52)NH2 [S45W, Q50W]] | pKI | 7.09 |
| DKDNVAPRWWISPWGF-NH2 [AM(37-52)NH2 [S45W, K46W, Q50W, Y52F]] | pKI | 4.78 |
| DKKNVAPRSKISPQGY-NH2 [AM(37-52)NH2 [D39K]] | pKI | 5.22 |
| FVPTDVGPWSF-NH2 [CGRP(27-37)NH2 [N31D, S34P, K35W, A36S]] | pKI | 5.61 |
| DKFNVAPRSLISPWGY-NH2 [AM(37-52)NH2 [D39F, K46L, Q50W]] | pKI | 5.74 |
| DKDNVAPRTWISPWGY-NH2 [AM(37-52)NH2[S45T, K46W, Q50W]] | pKI | 4.9 |
| DKDNVAPRSKISPFGY-NH2 [AM(37-52)NH2 [Q50F]] | pKI | 5.67 |
| DKDNVAPRSLISPWGY-NH2 [AM(37-52)NH2 [K46L, Q50W]] | pKI | 5.78 |

Hello, the source for this data is patent US20200024320A1, in case you need it.
